Each recorded value in this set is attributed to patent US20220265629A1.

experiment: HFrEF study Part 1 (SAD Cohorts 1 and 2): plasma pharmacokinetics; assay type: in vivo, human; conditions: human, plasma, oral; SAD Cohort 1, Split dose 450 mg (n = 1); read-out: AUC0-∞
measurement.name: AUC(0-inf)

## Task Find the recorded AUC(0-inf) belonging to Cn1cc(S(=O)(=O)[C@@](C)(F)C2CCN(C(=O)Nc3ccon3)CC2)c(C(F)F)n1 and report it.
## Result 235 µg·h/mL

* * *

experiment: Single ascending oral dose study in healthy volunteers: plasma pharmacokinetics; format: in vivo, human; details: human, plasma, oral, 6 Hours Postdose; 350 mg + 525 mg; read-out: Plasma concentration, Median
measurement.name: concentration at 6 h
The reply should read as a number followed by its unit.

## Task Find the recorded concentration at 6 h belonging to Cn1cc(S(=O)(=O)[C@@](C)(F)C2CCN(C(=O)Nc3ccon3)CC2)c(C(F)F)n1 and report it.
## Result 2350 ng/mL

* * *

assay: Food effect cross-over study, 200 mg (25 mg tablets), healthy volunteers: plasma pharmacokinetics; type: in vivo, human; conditions: human, plasma, oral, 2 hours postdose, Fasted, read-out: Plasma concentration, Geometric Mean
measurement.name: concentration at 2 h (ng/mL)
Express it in ng/mL; write the number only.

## Task Find the recorded concentration at 2 h belonging to Cn1cc(S(=O)(=O)[C@@](C)(F)C2CCN(C(=O)Nc3ccon3)CC2)c(C(F)F)n1 [Compound I] and report it.
## Result 1780

* * *

Experiment: Single ascending oral dose study in healthy volunteers: plasma pharmacokinetics
Format: in vivo, human
Settings: human, plasma, oral, 525 mg; read-out: Cmax, Geometric Mean
Source text: This example describes the first-in-human study of Compound I. Based on its mechanism of action, Compound I may offer a targeted therapy for patients with DCM caused by genetic or nongenetic mechanisms. […] The concentrations of Compound I in human plasma and urine were quantitated by high performance liquid chromatography with tandem mass spectrometric detection (LC MS/MS) (Biological sample analysis study report Alturas AD17-726). […]
measurement.name: Cmax (ng/mL)
Express it in ng/mL; write the number only.

## Task Find the recorded Cmax belonging to Cn1cc(S(=O)(=O)[C@@](C)(F)C2CCN(C(=O)Nc3ccon3)CC2)c(C(F)F)n1 and report it.
## Result 2290

* * *

test: Single ascending oral dose study in healthy volunteers: plasma pharmacokinetics; assay type: in vivo, human; settings: human, plasma, oral, 25 mg; read-out: Mean Residence Time, Geometric Mean
measurement.name: MRT (h)
Express it in h; write the number only.

## Task Find the recorded MRT belonging to Cn1cc(S(=O)(=O)[C@@](C)(F)C2CCN(C(=O)Nc3ccon3)CC2)c(C(F)F)n1 and report it.
## Result 20.6

* * *

test: Single ascending oral dose study in healthy volunteers: plasma pharmacokinetics; format: in vivo, human; conditions: human, plasma, oral, 50 mg; read-out: AUC0-∞, Mean
measurement.name: AUC(0-inf) (ng·h/mL)
Express it in ng·h/mL; write the number only.

## Task Find the recorded AUC(0-inf) belonging to Cn1cc(S(=O)(=O)[C@@](C)(F)C2CCN(C(=O)Nc3ccon3)CC2)c(C(F)F)n1 and report it.
## Result 11300

* * *

test: Single ascending oral dose study in healthy volunteers: plasma pharmacokinetics; assay type: in vivo, human; settings: human, plasma, oral, 10 mg, 12 Hours Postdose; 10 mg; read-out: Plasma concentration, Geometric Mean
measurement.name: concentration at 12 h
The reply should read as a number followed by its unit.

## Task Find the recorded concentration at 12 h belonging to Cn1cc(S(=O)(=O)[C@@](C)(F)C2CCN(C(=O)Nc3ccon3)CC2)c(C(F)F)n1 [Compound I] and report it.
## Result 92.8 ng/mL
